Form field: aptazyme ON/OFF ratio (one value per entry).
B1: Pistol ribozyme (parent)
chain: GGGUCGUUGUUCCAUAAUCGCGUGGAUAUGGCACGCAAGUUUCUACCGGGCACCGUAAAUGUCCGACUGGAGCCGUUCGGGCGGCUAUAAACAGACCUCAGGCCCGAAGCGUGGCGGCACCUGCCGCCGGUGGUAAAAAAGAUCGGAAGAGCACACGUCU

# Variants of: B1
# procedure.text: aptazyme ON/OFF ratio, guanine; higher = stronger switching; co-transcriptional cleavage with and without guanine

# mutation.spec, aptazyme ON/OFF ratio
measured = [
    ("U7G U8A G9C U10A U11G C12G C13G", 1.03),
    ("U10G U11G C12A", 1.37),
    ("U7C U8A G9A U11G C12G C13U", 1.13),
    ("U7C U10G C12A C13A", 1.15),
    ("U7G G9A C12A C13G", 1.15),
    ("U7C U8A G9A U10A U11A C12G", 1.23),
    ("U7A G9U U11G C12G C13U", 1.14),
    ("U8G G9C U10A U11C C13A", 1.04),
    ("U7A U8A G9U U10A C13A", 1.43),
    ("U7C G9C U10C U11C C12A", 1.03),
    ("U7C U8G G9A U11C C12A", 1.1),
    ("G9C U11G C12U C13A", 1.3),
    ("U7A U8G U10C C12G C13U", 1.28),
    ("U7G U8A G9A U10C U11C C12A", 1.11),
]
